Recorded ARE-luciferase IC50 by entry
Target: T1, human Activin A (R&D Systems) (human, UniProt P08476 311-426)
T1 sequence (looked up): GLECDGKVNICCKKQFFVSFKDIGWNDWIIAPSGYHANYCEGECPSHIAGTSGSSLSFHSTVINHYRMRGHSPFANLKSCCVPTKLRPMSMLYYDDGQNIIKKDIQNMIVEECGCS
Assay: cell-based or functional assay

Binder | Unit Spec | Bound Operator | ARE-luciferase IC50
3146_A08 (designed binder) MGVSDVPRDLEVVAATPTSLLISWSLPNPGNAHYYRITYGETGGNSPVQEFTVPGRGVTATISGLKPGVDYTITVYAVTVTDTGFITYKPISINYRTEIDKPSQHHHHHH | nM | > | 1000
2524_C11 (designed binder) MGVSDVPRDLEVVAATPTSLLISWTLPHAGLAHYYRITYGETGGNSPVQEFTVPGRGVTATISGLKPGVDYTITVYAVTLTNSEIILYKPISINYRTEIDKPSQHHHHHH | nM | = | 765
